The reader will find reported Kp at 1 h values listed item by item below.
METHOD_SUMMARY: Rapid brain distribution assay (LC-MS/MS, brain tissue/plasma ratio)
Assay type: in vivo
PROTOCOL_CONDITIONS: mouse, ip, CD1 mice, intraperitoneal, grouped compounds, brain tissue and plasma taken one hour after administration, read-out: B/P
Lab note: jot down the number only; don't add units.

Example entries and their recorded answers appear below.
[[record]]
compound = "C(#Cc1cnc2cccnn12)c1cncc(-n2cc3c(n2)C(c2ccccc2)CC3)c1 (centres unmarked)"
result_value = 1.24

[[record]]
compound = "C(#Cc1cnc2cccnn12)c1cccc(-n2cc3c(n2)C(c2ccccc2)CC3)n1 (centres unmarked)"
result_value = 0.735

[[record]]
compound = "Nc1ncc(C#Cc2cc(-n3cc4c(n3)C(c3ccccc3)CC4)ncn2)cn1 (centres unmarked)"
result_value = 2.85

[[record]]
compound = "Cn1cc(C#Cc2cnc(N)nc2)cc(-n2cc3c(n2)C(c2ccccc2)CC3)c1=O (centres unmarked)"
result_value = 3.25

[[record]]
compound = "Nc1ncc(C#Cc2cncc(-n3cc4c(n3)C(c3ccccc3)CC4)c2)cn1 (centres unmarked)"
result_value = 2.46


Kp at 1 h reading for Cc1c2c(nn1-c1cncc(C#Cc3cnc(N)nc3)c1)C(c1ccccc1)CC2 (centres unmarked) : 1.61

Short answer for NC(=O)c1ncc(C#Cc2cncc(-n3cc4c(n3)C(c3ccccc3)CC4)c2)cn1 (centres unmarked) : Kp at 1 h was 1.34

According to the records, this compound C(#Cc1cnc2cccnn12)c1cc(-n2cc3c(n2)C(c2ccccc2)CC3)ccn1 (centres unmarked) displays Kp at 1 h of 1.06

* * *

METHOD_SUMMARY: Rapid brain distribution assay (LC-MS/MS, brain tissue/plasma ratio)
Type: in vivo
PROTOCOL_CONDITIONS: mouse, ip, CD1 mice, intraperitoneal, grouped compounds, brain tissue and plasma taken one hour after administration, read-out: B/P
Mark class 0 for Kp at 1 h values under 2, and class 1 for everything at or above.

Worked examples, 5 molecules total:
[[record]]
molecule = "Nc1ncc(CCc2cncc(-n3cc4c(n3)[C@H](c3ccccc3)CC4)c2)cn1"
classification = "class 0"

[[record]]
molecule = "Nc1ccc(C#Cc2cncc(-n3cc4c(n3)C(c3ccccc3)CC4)c2)cn1 (centres unmarked)"
classification = "class 1"

[[record]]
molecule = "Nc1ncc(C#Cc2cncc(-n3nc4c(c3Cl)CCC4c3ccccc3)c2)cn1 (centres unmarked)"
classification = "class 1"

[[record]]
molecule = "C(#Cc1cncc(-n2cc3c(n2)C(c2ccccc2)CC3)c1)c1ccccc1 (centres unmarked)"
classification = "class 0"

[[record]]
molecule = "C(#Cc1cnc2ccccn12)c1cccc(-n2cc3c(n2)C(c2ccccc2)CC3)c1 (centres unmarked)"
classification = "class 0"


Query: Hello, I need to know if COc1ccc(C#Cc2cccc(-n3cc4c(n3)C(c3ccccc3)CC4)c2)cn1 (centres unmarked) has measured Kp at 1 h not below 2. Thanks!
Reply: class 0

Query: Please tell me: is the molecule Cc1ncc(C#Cc2cn[nH]c2)cc1-n1nc2c(n1)C(c1ccccc1)CC2 (centres unmarked) at or over 2 in terms of Kp at 1 h?
Reply: class 1

Query: # check: Kp at 1 h of Nc1ncc(C#Cc2cncc(-n3cc4c(n3)C(c3cccc(F)c3)CC4)c2)cn1 (centres unmarked) is greater than or equal to 2
Reply: class 1
